ASSAY DETAILS: Oral PK of micronized Compound A, powder-in-capsule vs tablet, two particle sizes
Format: in vivo, male Beagle dogs
CONDITION INFO: male, Beagle, dog, plasma, 20 mg, four 5 mg tablets (20 mg), 12 micron Dv90, read-out: Oral bioavailability (F %)
REPORTED PROPERTY: bioavailability (%)
Unit % implied. Number only.

Q. Item under review: CS(=O)(=O)N[C@H]1CCCN2C(=O)COc3ccccc3C3CCC(CC3)OCC12 (stereo partly shown) [Compound A] . Reported bioavailability?
A. 29

---

ASSAY DETAILS: Part 3 relative bioavailability (tablet vs powder-in-capsule) with food effect: plasma PK, 10 mg
Format: in vivo, human
CONDITION INFO: human, plasma, oral, 10 mg, 10 mg Tablet (Fasted), Cohort 2, N = 8
REPORTED PROPERTY: AUC(0-inf) (ng·h/mL)
Unit ng·h/mL implied. Number only.

Q. Item under review: CS(=O)(=O)N[C@H]1CCCN2C(=O)COc3ccccc3C3CCC(CC3)OCC12 (stereo partly shown) . Reported AUC(0-inf)?
A. 189

These data points were gathered from patent US20250186405A1.
